Data credit: ChEMBL document CHEMBL1147725

- ASSAYED_TARGET: Transient receptor potential cation channel subfamily V member 1 (Rattus norvegicus, UniProt O35433)
- Sequence (O35433 whole entry): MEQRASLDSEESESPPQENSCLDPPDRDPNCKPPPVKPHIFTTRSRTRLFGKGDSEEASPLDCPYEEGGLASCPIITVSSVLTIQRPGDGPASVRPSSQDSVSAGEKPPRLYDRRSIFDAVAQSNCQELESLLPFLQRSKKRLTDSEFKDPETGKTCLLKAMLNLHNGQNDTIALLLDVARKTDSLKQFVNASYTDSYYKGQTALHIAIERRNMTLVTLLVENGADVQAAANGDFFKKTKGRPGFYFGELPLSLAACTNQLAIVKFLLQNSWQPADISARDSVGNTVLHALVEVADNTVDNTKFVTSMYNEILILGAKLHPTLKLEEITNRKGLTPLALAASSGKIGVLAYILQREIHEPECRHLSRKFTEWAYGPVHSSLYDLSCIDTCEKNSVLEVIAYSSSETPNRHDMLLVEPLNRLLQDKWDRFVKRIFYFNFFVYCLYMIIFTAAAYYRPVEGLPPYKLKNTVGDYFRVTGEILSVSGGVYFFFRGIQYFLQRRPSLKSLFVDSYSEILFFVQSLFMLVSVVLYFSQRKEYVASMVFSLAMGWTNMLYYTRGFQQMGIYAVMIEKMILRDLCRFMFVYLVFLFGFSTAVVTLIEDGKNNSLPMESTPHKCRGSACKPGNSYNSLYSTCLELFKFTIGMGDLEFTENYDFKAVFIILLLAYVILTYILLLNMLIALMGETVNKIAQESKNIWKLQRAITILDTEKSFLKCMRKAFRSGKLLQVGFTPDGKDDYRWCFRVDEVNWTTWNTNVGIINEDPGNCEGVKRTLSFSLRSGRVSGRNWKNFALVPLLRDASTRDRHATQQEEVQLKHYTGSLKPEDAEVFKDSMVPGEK
- METHOD_SUMMARY: Inhibition of calcium influx evoked by capsaicin in rat TRPV1 expressing cells by fluorescence assay
- Type: functional, cell-based
RECORDED_ENDPOINT: IC50 (nM)

chemical_structure=CC(C)(C)c1nc2[nH]c(=S)[nH]c(=O)c2cc1-c1ccccc1 value=90

###

- METHOD_SUMMARY: Cmax in rat plasma at 3 mg/kg, po
- Format: ADME, organism-based
- Set-up: dose 3 mg/kg, route oral
- MEASUREMENT_CONDITIONS: Wistar Han
RECORDED_ENDPOINT: Cmax (nM)

chemical_structure=Cc1nc2cc(C(C)C)c(-c3ccc(Cl)c(OCC4CC4)c3)cc2c(=O)[nH]1 value=1910
